Molecular target: 5-HT1A receptor (Homo sapiens)
Construct: host or cells: CHO-K1 (co-expressing Gα15)
Test: cAMP-Glo assay with fixed forskolin in +5-HT1A cells (CHO-K1/5-HT1A/Gα15)
Type: cell-based
Conditions: +5HT1A cell cultures, fixed (4 μM) forskolin
quantity_kind: 5-HT1A receptor modulation (conclusion from cAMP/luminescence trend)

CN(C)CCc1c[nH]c2ccccc12 [DMT] : 5-HT1A activity
CCN(CC)CCc1c[nH]c2c(C=O)ccc(O)c12 [compound (VIII)] : 5-HT1A modulation activity
NCCc1c[nH]c2ccc(O)cc12 [serotonin] : 5-HT1A binding activity

Kindly consider the entry below.
Q: I have this molecule here, CCCCN(CCCC)CCc1c(C=O)[nH]c2cccc(OC)c12 [compound (XII)] , and I need its recorded 5-HT1A receptor modulation (conclusion from cAMP/luminescence trend).
Ans: 5-HT1A modulation activity

====

Target: 5-HT1A receptor (Homo sapiens, UniProt P08908)
Construct: host or cells: CHO-K1 (co-expressing Gα15)
Sequence (P08908 whole entry): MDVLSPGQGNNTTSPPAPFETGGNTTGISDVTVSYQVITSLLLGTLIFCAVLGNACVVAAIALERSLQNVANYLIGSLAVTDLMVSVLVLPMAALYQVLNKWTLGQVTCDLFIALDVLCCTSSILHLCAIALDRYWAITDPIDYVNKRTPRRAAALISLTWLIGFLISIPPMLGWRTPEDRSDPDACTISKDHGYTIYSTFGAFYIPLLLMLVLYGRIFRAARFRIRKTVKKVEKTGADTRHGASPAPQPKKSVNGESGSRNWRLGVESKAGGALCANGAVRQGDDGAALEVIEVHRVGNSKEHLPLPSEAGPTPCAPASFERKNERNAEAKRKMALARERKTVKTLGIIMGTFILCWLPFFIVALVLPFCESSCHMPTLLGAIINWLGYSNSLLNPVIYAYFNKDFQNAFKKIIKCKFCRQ
Assay: cAMP-Glo assay with fixed forskolin in +5-HT1A cells (CHO-K1/5-HT1A/Gα15)
Type: cell-based
Details: +5HT1A cell cultures, fixed (4 μM) forskolin
quantity_kind: % cAMP levels as dosages of compound decrease

CCN(CC)CCc1c[nH]c2c(C=O)ccc(O)c12 : increased % cAMP levels
COc1ccc(C=O)c2[nH]cc(CCN)c12 : decreased % cAMP levels
CCCCN(CCCC)CCc1c(C=O)[nH]c2cccc(OC)c12 : decreased % cAMP levels
NCCc1c[nH]c2ccc(O)cc12 : increased % cAMP levels
